Please provide measured EC50 for the entries that follow.
- System: Staphylococcus aureus
- protocol_details: Antibacterial activity against Staphylococcus aureus ATCC 25923 after 6 to 8 hrs by bacterial proliferation assay
- Assay type: functional, organism-based
// note: answer is a bare numeric in µM

[in] Suppose we examine the molecule O=C(Nc1ccccc1)c1ccccc1O [SALICYLANILIDE] ; what EC50 value has been reported?
[out] 28

[in] Suppose we examine the molecule O=C(Nc1ccc(Oc2ccc(Cl)cc2)c(Cl)c1)c1cc(I)cc(I)c1O [RAFOXANIDE] ; what EC50 value has been reported?
[out] 0.32

[in] Suppose we examine the molecule `O=C(Nc1ccc(Sc2nc3ccccc3s2)cc1)c1cccc(Br)c1O` ; what EC50 value has been reported?
[out] 0.76
